# Test system: HeLa
# ASSAY_COMMENT: Primary qHTS to identify gynecologic anti-cancer compounds using libraries of approved drugs and bioactive compounds (AID 1345084); note: nearly all actives have a fitted effect of over 55% in size
# STATED_CONDITIONS: Gynecologic cancer cell panel viability, ATPlite luminescence, 48 h; series mostly up to 57.5 µM
Records with an inconclusive call do not appear. Activity calls are given as the source filed them. Calls come from the whole dose curve; as a rule, active = well fitted cell-killing curve with a large enough effect; inconclusive = small, poorly fitted or top-dose-only effect, or effect the other way; inactive = flat fitted curve, though single readings scatter.
// allowed return values: active, inactive

Consider the following illustrative entries.
>>> df
                                   molecule     class
0  CC1CC(=O)NN=C1c1ccc(NCC(C)(C)NCC(O)COc2cc(Cl)ccc2C#N)cc1 (configuration not stated)  inactive
1  N#C/C(=C1/SC[C@@H](c2ccc(Cl)cc2Cl)S1)n1ccnc1  inactive
2                       CC(=O)c1cc2ccccc2s1  inactive
3  Cn1cc(S(C)=O)c(=O)c2ccc(F)cc21 (configuration not stated)  inactive

Request: Hi team, can someone confirm the assay call for `Cc1nc(N)nc(N)c1-c1ccc(Cl)c(Cl)c1` ?
Response: active

* * *

# ASSAY_COMMENT: Primary qHTS for inhibitors of nuclear receptor binding SET domain protein 2 (NSD2) in an isogenic RCH-ACV NSD2 p.E1099K mutant (9B) (AID 1645876); note: nearly all actives have a fitted effect of over 70% in size
# STATED_CONDITIONS: RCH-ACV (leukaemia line) NSD2 E1099K (9B) viability, CellTiter-Glo, 72 h; series mostly up to 44.9 µM
Results filed as inconclusive are left out. The source made the active and inactive calls. Calls follow the shape of the dose curve; as a rule, active = well fitted inhibition curve with a large enough effect; inconclusive = small, poorly fitted or top-dose-only effect; inactive = flat fitted curve, though single readings scatter.
Use one of these outcomes when replying: yes (1) (active), no (0) (inactive)

In [3]: df
Out[3]:
                                   molecule   class
0                         Nc1ncnc2nc[nH]c12  no (0)
1  CSCC[C@H](NC(=O)[C@H](Cc1c[nH]c2ccccc12)NC(=O)CCNC(=O)OC(C)(C)C)C(=O)N[C@@H](CC(=O)O)C(=O)N[C@@H](Cc1ccccc1)C(N)=O  no (0)
2                CC1(C)OC(=O)Nc2ccc(Br)cc21  no (0)
3                        CCCc1ncc(C(=O)O)s1  no (0)
4  CC1c2ccccc2CN1NC(=O)c1ccc(Cl)c(S(N)(=O)=O)c1 (stereo not given)  no (0)
5  C[C@@]12CCC[C@H]1[C@@H]1CC[C@H]3C[C@@H](O)CC[C@]3(C)[C@H]1CC2  no (0)

Request: Dear all, I need the recorded test outcome for `CCCCNc1ccc(C(=O)OCCN(CC)CC)cc1` , thank you.
Response: no (0)

Request: Assay result, entry CC(NN)c1ccccc1 (stereo not given) — outcome?
Response: no (0)

* * *

# ASSAY_COMMENT: qHTS to identify inhibitors of the type 1 interferon - major histocompatibility complex class I in skeletal muscle: primary screen against the NCATS Pharmaceutical Collection (AID 1347407);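 note: luminescence of HiBiT knocked into endogenous HLA-B as interferon-induced MHC class I level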
# STATED_CONDITIONS: human skeletal muscle cells, IFN-b-induced MHC-I HiBiT luminescence, 24 h; series mostly up to 45.9 µM
Inconclusive results are not listed. Calls of active or inactive are those of the source. The call rests on the fitted dose curve; in most records, active means well fitted inhibition curve with a large enough effect; inconclusive means small, poorly fitted or top-dose-only effect; inactive means flat fitted curve, though single readings scatter.
Bench note: report the call from T (active), F (inactive)

                                   compound  class
0  C1=CC2C3C=CC(C3)C2C1 (configuration not stated)      F

Request: Hi, sorry to bother you, what did the test record for `CCC(=O)Oc1ccc2c(c1)CC[C@@H]1[C@@H]2CC[C@@]2(C)[C@H]1C[C@@H](OC(=O)CC)[C@@H]2OC(=O)CC` ?
Response: F

Request: Tell me the recorded outcome of this test for `C/C(=N/NC(=O)c1ccncc1)C(=O)O` .
Response: F

Request: Name the outcome recorded for `CC(=O)N(CC(=O)N(C)C)c1ccccc1` in the assay.
Response: F

Request: I'd appreciate the recorded outcome for `CCCCCCCCCCCCCCCC[N+](C)(C)Cc1ccccc1` from this test.
Response: T

Request: Hello, I am checking results. What call was entered for `CCOC(=O)C(=O)CCCCCCl` ?
Response: F

Request: Record lookup: outcome of this test for `CCOC(=O)C(=O)c1csc(NC=O)n1` ?
Response: F
